Where do the numbers come from? From ChEMBL document CHEMBL5055643.

# Assay Info: Cytotoxicity against becatecarin-selected ABCG2-overexpressing human A549/Bec150 cells assessed as cell viability at 1 to 5 uM measured after 72 hrs by CCK8 assay
# Format: ADME, cell-based
# Particulars: dose 1-5 µM, read-out: Activity
Measured Quantity: viability at 72 h, up to 5 µM

The measured viability at 72 h, up to 5 µM associated with C=C(C)[C@H](CC=C(C)C)Cc1c(O)cc(O)c2c1O[C@H](c1ccc(O)cc1O)CC2=O [SOPHORAFLAVANONE G] reads > 90%

----------
# Tested System: UniProtKB Q9UNQ0
# Assay Info: Inhibition of ABCG2 in mitoxantrone-selected ABCG2-overexpressing human NCI-H460/MX20 cells assessed as increase in intracellular mitoxantrone accumulation at 20 uM incubated for 1 hr in presence of mitoxantrone by flow cytometry
# Type: cell-based
# Particulars: probe mitoxantrone
Measured Quantity: inhibition at 1 h, 20 µM (%)
Give the value, in units of %, as a plain number.

The measured inhibition at 1 h, 20 µM associated with C=C(C)[C@H](CC=C(C)C)Cc1c(O)cc(O)c2c1O[C@H](c1ccc(O)cc1O)CC2=O [SOPHORAFLAVANONE G] reads 100

----------
# Test system: ABCG2
# Assay Info: Resistance factor, ratio of IC50 for becatecarin-selected ABCG2-overexpressing human A549/Bec150 cells to IC50 for human A549 cells
# Assay type: ADME
# Particulars: read-out: Ratio IC50
Measured Quantity: selectivity ratio
# output: bare number, no unit

The measured selectivity ratio associated with C=C(C)[C@H](CC=C(C)C)Cc1c(O)cc(O)c2c1O[C@H](c1ccc(O)cc1O)CC2=O reads 0.8

----------
# System: A549
# Assay Info: Cytotoxicity against human A549 cells assessed as reduction in cell viability measured after 72 hrs by CCK8 assay
# Assay type: cell-based
# Particulars: A549, 72 h
Measured Quantity: IC50 (µM)
Give the value, in units of µM, as a plain number.

Simply: C=C(C)[C@H](CC=C(C)C)Cc1c(O)cc(O)c2c1O[C@H](c1ccc(O)cc1O)CC2=O , A549, IC50 = 26.2

----------
# System: ABCG2
# Assay Info: Resistance factor, ratio of IC50 for ABCG2-overexpressing human HEK293/482R cells to IC50 for human HEK293 cells
# Assay type: ADME
# Particulars: read-out: Ratio IC50
Measured Quantity: selectivity ratio
# output: bare number, no unit

The measured selectivity ratio associated with C=C(C)[C@H](CC=C(C)C)Cc1c(O)cc(O)c2c1O[C@H](c1ccc(O)cc1O)CC2=O [SOPHORAFLAVANONE G] reads 1.4

----------
# Assay Info: Cytotoxicity against ABCG2-overexpressing human HEK293/482R cells assessed as cell viability at 1 to 5 uM measured after 72 hrs by CCK8 assay
# Assay type: ADME, cell-based
# Particulars: ABCG2-overexpressing HEK293/482R cells, dose 1-5 µM, read-out: Activity
Measured Quantity: viability at 72 h, up to 5 µM

The measured viability at 72 h, up to 5 µM associated with C=C(C)[C@H](CC=C(C)C)Cc1c(O)cc(O)c2c1O[C@H](c1ccc(O)cc1O)CC2=O [SOPHORAFLAVANONE G] reads > 90%

----------
# Assay Info: Cytotoxicity against human A549 cells assessed as cell viability at 1 to 5 uM measured after 72 hrs by CCK8 assay
# Type: cell-based
# Particulars: dose 1-5 µM, read-out: Activity
Measured Quantity: viability at 72 h, up to 5 µM

The measured viability at 72 h, up to 5 µM associated with C=C(C)[C@H](CC=C(C)C)Cc1c(O)cc(O)c2c1O[C@H](c1ccc(O)cc1O)CC2=O reads > 90%

----------
# Tested System: Broad substrate specificity ATP-binding cassette transporter ABCG2 (Homo sapiens, UniProt Q9UNQ0)
# Sequence (Q9UNQ0 whole entry): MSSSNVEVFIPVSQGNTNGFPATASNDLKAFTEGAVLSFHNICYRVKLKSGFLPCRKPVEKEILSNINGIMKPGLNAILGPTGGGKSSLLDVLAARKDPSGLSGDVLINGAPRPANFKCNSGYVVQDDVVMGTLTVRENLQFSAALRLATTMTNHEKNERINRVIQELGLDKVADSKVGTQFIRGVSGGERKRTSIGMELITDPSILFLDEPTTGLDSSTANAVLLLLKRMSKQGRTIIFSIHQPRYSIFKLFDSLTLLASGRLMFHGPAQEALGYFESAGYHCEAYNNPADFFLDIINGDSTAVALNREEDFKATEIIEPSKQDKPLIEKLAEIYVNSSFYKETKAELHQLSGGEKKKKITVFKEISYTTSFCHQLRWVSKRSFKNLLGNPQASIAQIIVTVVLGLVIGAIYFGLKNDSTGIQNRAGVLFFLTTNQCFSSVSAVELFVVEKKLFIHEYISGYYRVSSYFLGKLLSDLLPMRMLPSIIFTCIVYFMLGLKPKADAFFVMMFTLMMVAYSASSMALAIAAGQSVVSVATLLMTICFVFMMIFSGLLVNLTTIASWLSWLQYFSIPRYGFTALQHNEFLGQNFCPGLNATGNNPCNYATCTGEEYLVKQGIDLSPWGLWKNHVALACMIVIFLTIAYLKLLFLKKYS
# Assay Info: Inhibition of ABCG2 in mitoxantrone-selected ABCG2-overexpressing human NCI-H460/MX20 cells assessed as increase in intracellular mitoxantrone accumulation incubated for 1 hr in presence of mitoxantrone by flow cytometry
# Assay type: cell-based
Measured Quantity: IC50

The measured IC50 associated with C=C(C)[C@H](CC=C(C)C)Cc1c(O)cc(O)c2c1O[C@H](c1ccc(O)cc1O)CC2=O reads 2120 nM

----------
# Tested System: ABCG2 (Homo sapiens)
# Assay Info: Inhibition of ABCG2 in becatecarin-selected ABCG2-overexpressing human A549/Bec150 cells assessed as increase in intracellular mitoxantrone accumulation at 20 uM incubated for 1 hr in presence of mitoxantrone by flow cytometry
# Format: cell-based
# Particulars: probe mitoxantrone
Measured Quantity: inhibition at 1 h, 20 µM (%)
Give the value, in units of %, as a plain number.

The measured inhibition at 1 h, 20 µM associated with C=C(C)[C@H](CC=C(C)C)Cc1c(O)cc(O)c2c1O[C@H](c1ccc(O)cc1O)CC2=O reads 100

----------
# Assay Info: Cytotoxicity against mitoxantrone-selected ABCG2-overexpressing human NCI-H460/MX20 cells assessed as cell viability at 1 to 5 uM measured after 72 hrs by CCK8 assay
# Assay type: ADME, cell-based
# Particulars: dose 1-5 µM, read-out: Activity
Measured Quantity: viability at 72 h, 5 µM

The measured viability at 72 h, 5 µM associated with C=C(C)[C@H](CC=C(C)C)Cc1c(O)cc(O)c2c1O[C@H](c1ccc(O)cc1O)CC2=O reads > 90%

----------
# Tested on: ABCG2
# Assay Info: Resistance factor, ratio of IC50 for mitoxantrone-selected ABCG2-overexpressing human NCI-H460/MX20 cells to IC50 for human NCI-H460 cells
# Type: ADME
# Particulars: read-out: Ratio IC50
Measured Quantity: selectivity ratio

The measured selectivity ratio associated with C=C(C)[C@H](CC=C(C)C)Cc1c(O)cc(O)c2c1O[C@H](c1ccc(O)cc1O)CC2=O reads 0.8
